For each entry below, report its IC50 value.
Tested on: Plasmodium falciparum
Assay: Antimalarial activity against chloroquine-resistant Plasmodium falciparum FcB1/Columbia infected in human erythrocytes assessed as inhibition of [G-3H]hypoxanthine incorporation after 24 hrs by scintillation counting
Assay type: functional, organism-based
Give just the numeric value; nM need not be written.

What value of measured IC50 is listed for `CCCCCCC[C@@H]1C[C@@H]2CCc3c(C(=O)O)c(C)nc([n+]32)N1` ?
2300

What value of measured IC50 is listed for CCCCCCCCC[C@@H]1C[C@@H]2CCc3c(C(=O)OCCCCNC(=N)N)c(CCCCC)nc([n+]32)N1 [DIHOMODEHYDROBATZELLADINE C] ?
4500

What value of measured IC50 is listed for `CCCCCCCCC[C@@H]1C[C@@H]2CC[C@H]3[C@@H](C(=O)OCCCCCCCCC[C@H]4NC(=N)N5CCCC5=C4C(=O)OCCCCNC(=N)N)[C@@H](C)N=C(N1)N23` ?
300

What value of measured IC50 is listed for CCCCCCCCC[C@@H]1C[C@@H]2CC[C@H]3[C@@H](C(=O)OC(C)CCCCCCC[C@@H]4C[C@@H]5CC[C@@H]6C[C@H](C)NC(=N4)N65)[C@@H](C)N=C(N1)N23 (stereo not given in full) ?
300

What value of measured IC50 is listed for `CC[C@H]1CCCC[C@@]2(C[C@@H]3CC[C@@H]4[C@H](C(=O)OCCCCCCCCCCCCCCCC(=O)N(CCCN)CCCCN)[C@]5(CCC[C@@H](C)O5)NC(=[N+]34)N2)O1.[Cl-]` ?
100
